Ref: patent US20170202939A1

- study_target: T1, HLA-A*02:01 (human)
- T1 construct: The form of the HLA molecule in the fluorescence polarization assay is not described; also called HLA-A2
- protocol_notes: fluorescence polarization-based competitive peptide-binding assay
observable: log(IC50, nM)

Consider the worked cases shown below.
binder	log(IC50, nM)
LLSIVPCTV (Synthetic nonamer carrying a tumor amino acid substitution) [GPX8 L27P AAS peptide LLSIVPCTV (MEL21)]	3.09 log(IC50, nM)
MLGEQLFPL (Synthetic nonamer carrying a tumor amino acid substitution) [PABPC1 R520Q AAS peptide MLGEQLFPL (MEL218)]	2.35 log(IC50, nM)
IMAHCILDL (Synthetic nonamer carrying a tumor amino acid substitution) [SRP9 I64M AAS peptide IMAHCILDL (MEL218)]	4.02 log(IC50, nM)
QLSCISTYV (Synthetic nonamer carrying a tumor amino acid substitution) [OR8B3 T190I AAS peptide QLSCISTYV (MEL38)]	3.1 log(IC50, nM)
QLDKCSAFV (Synthetic nonamer carrying a tumor amino acid substitution) [UTRN Q1058K AAS peptide QLDKCSAFV (MEL38)]	3.36 log(IC50, nM)

Input: Quote log(IC50, nM) reported for AVIDAYTEI (Synthetic nonamer carrying a tumor amino acid substitution) [LARP7 N515D AAS peptide AVIDAYTEI (MEL218)] please.
Output: 4.41 log(IC50, nM)

Input: Quote log(IC50, nM) reported for CLFPQTLAA [PRKCDBP S153F AAS peptide CLFPQTLAA (MEL38)] please.
Output: 3.53 log(IC50, nM)

Input: Quote log(IC50, nM) reported for LLSIIFFPA (Synthetic nonamer carrying a tumor amino acid substitution) [PHKA2 S264F AAS peptide LLSIIFFPA (MEL21)] please.
Output: 3.9 log(IC50, nM)

Input: Quote log(IC50, nM) reported for QTIDNIVFL (Synthetic nonamer carrying a tumor amino acid substitution) [ARFGEF1 F1637L AAS peptide QTIDNIVFL (MEL21)] please.
Output: 3.19 log(IC50, nM)
